TGI values by entry
system: MDA-N; assay: NCI tumour cell line growth inhibition, 48 h

compound | TGI
O=C1c2cc(Cl)ccc2NC(=NCCCl)C2CSCN12 (stereo unspecified) | > 100 µM
Cc1ccc(/C=N/Nc2ccc3ccccc3n2)s1 | 29.2 µM
COC(C)(C)C1(O)CCC(C)CC1=O (stereo unspecified) | > 100 µM
C=C1C(=O)O[C@@H]2C=C(C)C3=CC(=O)[C@](C)(C[C@H](OC(=O)/C(C)=C\C)[C@@H]12)O3 | 1.49 µM
Cc1ccc(S(=O)(=O)NNC(=O)c2cc(C)c(C)cc2N)cc1 | > 100 µM
O=C(O)CCC(=O)c1ccc(Cl)cc1 | > 100 µM
COc1c(O)cc2c(c1O)C(=O)/C(=C/c1ccc(O)cc1)CO2 | > 100 µM
Cc1cccc(C)c1NC(=O)Nc1ccc(S(N)(=O)=O)cc1 | > 100 µM
Cc1cc(C)c(NC(=S)NC(=O)c2ccccc2)cc1C | > 100 µM
CCOC(=O)C(NC(=O)c1ccccc1)(N1CCOCC1)C(F)(F)F (stereo unspecified) | > 100 µM
Cc1ccc2oc(=O)c(C(=O)Nc3nc(C45CC6CC(CC(C6)C4)C5)cs3)cc2c1 | > 100 µM

Data origin: PubChem BioAssay (NCI)
